Sequence of the target: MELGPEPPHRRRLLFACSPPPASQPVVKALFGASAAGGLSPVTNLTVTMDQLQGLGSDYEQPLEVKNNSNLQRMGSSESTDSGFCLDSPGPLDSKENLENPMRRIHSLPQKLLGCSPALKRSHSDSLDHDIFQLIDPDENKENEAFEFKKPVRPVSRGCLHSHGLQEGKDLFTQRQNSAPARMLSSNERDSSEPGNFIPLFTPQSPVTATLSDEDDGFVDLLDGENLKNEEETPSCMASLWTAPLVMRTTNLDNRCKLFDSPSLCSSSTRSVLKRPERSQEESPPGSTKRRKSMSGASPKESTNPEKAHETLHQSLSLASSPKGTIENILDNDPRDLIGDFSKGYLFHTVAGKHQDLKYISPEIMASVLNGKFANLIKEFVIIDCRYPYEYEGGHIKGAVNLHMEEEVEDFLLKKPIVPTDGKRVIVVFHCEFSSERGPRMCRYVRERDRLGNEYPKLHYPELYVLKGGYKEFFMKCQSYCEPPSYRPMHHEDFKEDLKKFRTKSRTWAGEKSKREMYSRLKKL
attribute.measured: IC50 (µM)
Express the result in µM but write the number alone.

### Prompt Output measured IC50 for this item: CCOC(=O)[C@@H](N)CSN=O
### Response 22.5
